Recorded values, source BindingDB's records for doi:10.1021/jm501892g.

Biological target: Baculoviral IAP repeat-containing protein 2 (cIAP1, BIRC2, Homo sapiens) (UniProt Q13490)
Sequence (Q13490 whole entry, looked up, the tested form may be a part): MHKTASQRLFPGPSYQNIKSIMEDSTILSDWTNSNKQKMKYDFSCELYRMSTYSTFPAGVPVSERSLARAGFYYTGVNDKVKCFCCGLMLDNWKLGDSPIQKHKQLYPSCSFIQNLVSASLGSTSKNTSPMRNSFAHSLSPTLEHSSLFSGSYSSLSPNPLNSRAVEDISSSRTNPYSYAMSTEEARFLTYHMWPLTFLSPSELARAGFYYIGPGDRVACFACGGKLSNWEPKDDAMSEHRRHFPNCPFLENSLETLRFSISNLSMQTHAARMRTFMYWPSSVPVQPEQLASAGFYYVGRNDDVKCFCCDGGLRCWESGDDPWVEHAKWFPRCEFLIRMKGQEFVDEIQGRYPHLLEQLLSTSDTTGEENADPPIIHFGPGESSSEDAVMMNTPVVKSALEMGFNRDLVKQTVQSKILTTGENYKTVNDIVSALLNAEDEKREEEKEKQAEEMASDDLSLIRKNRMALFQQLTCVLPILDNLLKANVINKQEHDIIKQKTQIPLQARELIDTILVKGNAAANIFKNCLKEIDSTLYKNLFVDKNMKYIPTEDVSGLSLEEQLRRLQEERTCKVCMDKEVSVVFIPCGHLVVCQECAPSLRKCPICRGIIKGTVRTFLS
Assay: Inhibition of cIAP1 BIR3 (154 to 352 residues) (unknown origin) by fluoresceinated dimeric SMAC peptide based fluorescence polarization assay
Reported values of IC50 for individual entries
Give the value, in units of nM, as a plain number.

Some solved cases for reference:
chemicalSmiles	IC50 (nM)
CN[C@@H](C)C(=O)N[C@H](C(=O)N1C[C@@H]2C[C@H]1C(=O)N[C@@H](Cc1ccccc1)C(=O)N[C@H](C(=O)O)Cc1ccc(cc1)OCc1cn(nn1)[C@H]1C[C@@H](C(=O)N[C@@H](Cc3ccccc3)C(=O)N[C@H](C(=O)O)Cc3ccc(cc3)OCc3cn2nn3)N(C(=O)[C@@H](NC(=O)[C@H](C)NC)C(C)C)C1)C(C)C	11
CN[C@@H](C)C(=O)N[C@H](C(=O)N1C[C@@H]2C[C@H]1C(=O)N[C@@H](Cc1ccccc1)C(=O)N[C@H](C(=O)O)Cc1ccc(cc1)NC(=O)CCc1cn(nn1)[C@H]1C[C@@H](C(=O)N[C@@H](Cc3ccccc3)C(=O)N[C@H](C(=O)O)Cc3ccc(cc3)NC(=O)CCc3cn2nn3)N(C(=O)[C@@H](NC(=O)[C@H](C)NC)C(C)C)C1)C(C)C	8
CN[C@@H](C)C(=O)N[C@H](C(=O)N1C[C@@H]2C[C@H]1C(=O)N[C@@H](Cc1ccc3ccccc3c1)C(=O)N[C@H](C(=O)O)Cc1cn(nn1)[C@H]1C[C@@H](C(=O)N[C@@H](Cc3ccc4ccccc4c3)C(=O)N[C@H](C(=O)O)Cc3cn2nn3)N(C(=O)[C@@H](NC(=O)[C@H](C)NC)C(C)C)C1)C(C)C	10
CN[C@@H](C)C(=O)N[C@H](C(=O)N1C[C@@H]2C[C@H]1C(=O)N[C@@H](Cc1cccc3ccccc13)C(=O)N[C@H](C(=O)O)Cc1ccc(cc1)OCc1cn(nn1)[C@H]1C[C@@H](C(=O)N[C@@H](Cc3cccc4ccccc34)C(=O)N[C@H](C(=O)O)Cc3ccc(cc3)OCc3cn2nn3)N(C(=O)[C@@H](NC(=O)[C@H](C)NC)C(C)C)C1)C(C)C	17

What IC50 appears in the records for this compound with Baculoviral IAP repeat-containing protein 2 (cIAP1, BIRC2, Homo sapiens) (UniProt Q13490)? CN[C@@H](C)C(=O)N[C@H](C(=O)N1C[C@@H]2C[C@H]1C(=O)N[C@@H](Cc1ccc3ccccc3c1)C(=O)N[C@H](C(=O)O)Cc1ccc(cc1)OCc1cn(nn1)[C@H]1C[C@@H](C(=O)N[C@@H](Cc3ccc4ccccc4c3)C(=O)N[C@H](C(=O)O)Cc3ccc(cc3)OCc3cn2nn3)N(C(=O)[C@@H](NC(=O)[C@H](C)NC)C(C)C)C1)C(C)C
17

* * *

Biological target: Baculoviral IAP repeat-containing protein 2 (cIAP1, BIRC2, Homo sapiens)
Test: Inhibition of cIAP1 BIR3 (154 to 352 residues) (unknown origin) by fluoresceinated dimeric SMAC peptide based fluorescence polarization assay
assayReadout: EC50 (nM)

P: CN[C@@H](C)C(=O)N[C@H](C(=O)N1C[C@@H]2C[C@H]1C(=O)N[C@@H](Cc1ccccc1)C(=O)N[C@H](C(=O)O)Cc1ccc(cc1)NC(=O)CCc1cn2nn1)C(C)C
Q: CN[C@@H](C)C(=O)N[C@H](C(=O)N1C[C@@H]2C[C@H]1C(=O)N[C@@H](Cc1ccccc1)C(=O)N[C@H](C(=O)O)Cc1ccc(cc1)OCc1cn2nn1)C(C)C
Out of P and Q , name the one with the higher EC50. State your choice using its label.
P
